Consider the following compounds; for each one, report its activity.
Target system: Nuclear receptor subfamily 1 group D member 1 (Homo sapiens) (UniProt P20393)
Sequence (P20393 whole entry, looked up): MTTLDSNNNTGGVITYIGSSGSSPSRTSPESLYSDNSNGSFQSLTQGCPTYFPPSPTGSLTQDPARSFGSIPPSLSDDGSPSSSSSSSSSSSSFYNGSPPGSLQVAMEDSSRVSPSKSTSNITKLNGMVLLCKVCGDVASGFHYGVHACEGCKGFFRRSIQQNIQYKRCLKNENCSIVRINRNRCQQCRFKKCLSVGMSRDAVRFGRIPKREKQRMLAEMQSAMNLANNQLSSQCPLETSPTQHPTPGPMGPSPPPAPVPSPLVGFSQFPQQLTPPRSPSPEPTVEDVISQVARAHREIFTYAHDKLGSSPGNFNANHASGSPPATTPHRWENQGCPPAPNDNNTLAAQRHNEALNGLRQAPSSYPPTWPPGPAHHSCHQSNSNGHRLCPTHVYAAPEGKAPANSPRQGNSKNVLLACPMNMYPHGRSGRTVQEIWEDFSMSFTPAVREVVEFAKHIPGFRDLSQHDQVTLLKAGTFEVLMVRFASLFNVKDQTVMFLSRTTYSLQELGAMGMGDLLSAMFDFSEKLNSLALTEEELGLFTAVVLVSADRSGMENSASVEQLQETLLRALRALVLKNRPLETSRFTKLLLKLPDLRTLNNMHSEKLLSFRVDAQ
Assay overview: modulators of Rev-erb alpha DNA binding, primary screen, biochemical, FITC-DNA, fluorescence polarization, uHTS (AID 1259318);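 note: 0% = DMSO wells with 35 nM protein and 100% = DMSO wells with 750 nM protein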
Measurement parameters: Rev-erbα–FITC-DNA binding, 90 min, at 10 µM, hits give high values
Hit rate of the full screen: of about 370,000 compounds, about 3,000 (0.81%) were called active. Only a selection was taken, and actives are over-represented in it overall.
One number for each entry, in %.

Worked examples, 5 compounds total:
Enquiry: // Input: Cc1sc2ncnc(N3CCC(C(=O)Nc4nc5ccc(Cl)cc5s4)CC3)c2c1C . Output its activity only.
Return: 42.2

Enquiry: Answer with the recorded activity for the compound listed here: CCCCCCCCCOC1OC(CO)C(O)C(O)C1NC(C)=O (stereo not given)
Return: 1.37

Enquiry: Note down activity recorded for Cc1cc(Br)ccc1NC(=O)c1cnc(N2CCN(c3ccccn3)CC2)c2ccccc12
Return: 0.52

Enquiry: Give the value of activity reported for the following: Cc1ccc(-n2nc3cc(C)c(NC(=O)c4cccnc4)cc3n2)cc1
Return: 36.7

Enquiry: Annotate the compound CCc1ccc(C(=O)NNC(=O)C2CCN(c3ncnc4sc(C)c(C)c34)CC2)cc1 with its measured activity.
Return: -5.39

I would be grateful if you could provide activity for each of the following entries.
1. C[C@@H]1CN([C@@H](C)CO)C(=O)c2cccc(NC(=O)Nc3cccc4ccccc34)c2O[C@H]1CN(C)S(=O)(=O)c1ccccc1F
2. Cc1sc2ncnc(N3CCC(C(=O)Nc4ccc(F)cc4Cl)CC3)c2c1C
3. CC(C)(C)NC(=O)C(c1cccnc1)N(C(=O)c1cnco1)c1ccc(C(C)(C)C)cc1 (stereo not given)

Return:
1: -2.31; 2: 8.75; 3: 0.3

Field: activity. Fill in for each record below.
1. COc1ccc(C)cc1NC(=O)NCCCCc1ccccc1
2. CCc1cc(=O)oc2c(C)c(OCC(=O)N3CC[C@@]4(O)CCCC[C@H]4C3)ccc12

Return:
[-4.58, 2.4]
